# System: TNF-α production
# test-description: In vitro inhibition of TNF-α production in human blood
# Assay type: cell-based
# assay-context: test dose 1 × 10^−7 M; human whole blood, lipopolysaccharide stimulation
# Experimental: Human Whole Blood Stimulation Peripheral blood from healthy male donors was drawn into heparinized syringes (12.5 U heparin/ml). […] Cytokine protein concentrations were determined by sandwich ELISA as described in Van Wauwe et al. (1996, Inflamm Res, 45, 357–363). […] Cytokine levels were calculated from standard curves using recombinant cytokines supplied by R&D Systems.
Measured % inhib. TNF-α by item
Respond with the bare value in %.

Would you please look over these solved cases?
# smiles-repr, % inhib. TNF-α / %
data = [
    ("Cl.Clc1cccc(Nc2nc(-c3cnc4sccn34)cs2)c1Cl", 40),
    ("Br.FC(F)(F)c1cccc(Nc2nc(-c3cnc4ccccc4c3)cs2)c1.O", 41),
    ("Br.COc1ccc(Nc2nc(-c3cnc4ccccn34)cs2)cc1", 48),
    ("Cc1ccc(Nc2nc(-c3cnc4ccccn34)cs2)cc1Cl.Cl", 53),
]

// below: % inhib. TNF-α requested for another molecule
The reported % inhib. TNF-α of the molecule Cc1cccc(Nc2nc(-c3cnc4ccccn34)cs2)c1.Cl was 49
